Reported values of pIC50 for individual entries
assay_target: human sodium ion channel 1.7 (hNav1.7) (Homo sapiens)
Sequence (Q15858 whole entry): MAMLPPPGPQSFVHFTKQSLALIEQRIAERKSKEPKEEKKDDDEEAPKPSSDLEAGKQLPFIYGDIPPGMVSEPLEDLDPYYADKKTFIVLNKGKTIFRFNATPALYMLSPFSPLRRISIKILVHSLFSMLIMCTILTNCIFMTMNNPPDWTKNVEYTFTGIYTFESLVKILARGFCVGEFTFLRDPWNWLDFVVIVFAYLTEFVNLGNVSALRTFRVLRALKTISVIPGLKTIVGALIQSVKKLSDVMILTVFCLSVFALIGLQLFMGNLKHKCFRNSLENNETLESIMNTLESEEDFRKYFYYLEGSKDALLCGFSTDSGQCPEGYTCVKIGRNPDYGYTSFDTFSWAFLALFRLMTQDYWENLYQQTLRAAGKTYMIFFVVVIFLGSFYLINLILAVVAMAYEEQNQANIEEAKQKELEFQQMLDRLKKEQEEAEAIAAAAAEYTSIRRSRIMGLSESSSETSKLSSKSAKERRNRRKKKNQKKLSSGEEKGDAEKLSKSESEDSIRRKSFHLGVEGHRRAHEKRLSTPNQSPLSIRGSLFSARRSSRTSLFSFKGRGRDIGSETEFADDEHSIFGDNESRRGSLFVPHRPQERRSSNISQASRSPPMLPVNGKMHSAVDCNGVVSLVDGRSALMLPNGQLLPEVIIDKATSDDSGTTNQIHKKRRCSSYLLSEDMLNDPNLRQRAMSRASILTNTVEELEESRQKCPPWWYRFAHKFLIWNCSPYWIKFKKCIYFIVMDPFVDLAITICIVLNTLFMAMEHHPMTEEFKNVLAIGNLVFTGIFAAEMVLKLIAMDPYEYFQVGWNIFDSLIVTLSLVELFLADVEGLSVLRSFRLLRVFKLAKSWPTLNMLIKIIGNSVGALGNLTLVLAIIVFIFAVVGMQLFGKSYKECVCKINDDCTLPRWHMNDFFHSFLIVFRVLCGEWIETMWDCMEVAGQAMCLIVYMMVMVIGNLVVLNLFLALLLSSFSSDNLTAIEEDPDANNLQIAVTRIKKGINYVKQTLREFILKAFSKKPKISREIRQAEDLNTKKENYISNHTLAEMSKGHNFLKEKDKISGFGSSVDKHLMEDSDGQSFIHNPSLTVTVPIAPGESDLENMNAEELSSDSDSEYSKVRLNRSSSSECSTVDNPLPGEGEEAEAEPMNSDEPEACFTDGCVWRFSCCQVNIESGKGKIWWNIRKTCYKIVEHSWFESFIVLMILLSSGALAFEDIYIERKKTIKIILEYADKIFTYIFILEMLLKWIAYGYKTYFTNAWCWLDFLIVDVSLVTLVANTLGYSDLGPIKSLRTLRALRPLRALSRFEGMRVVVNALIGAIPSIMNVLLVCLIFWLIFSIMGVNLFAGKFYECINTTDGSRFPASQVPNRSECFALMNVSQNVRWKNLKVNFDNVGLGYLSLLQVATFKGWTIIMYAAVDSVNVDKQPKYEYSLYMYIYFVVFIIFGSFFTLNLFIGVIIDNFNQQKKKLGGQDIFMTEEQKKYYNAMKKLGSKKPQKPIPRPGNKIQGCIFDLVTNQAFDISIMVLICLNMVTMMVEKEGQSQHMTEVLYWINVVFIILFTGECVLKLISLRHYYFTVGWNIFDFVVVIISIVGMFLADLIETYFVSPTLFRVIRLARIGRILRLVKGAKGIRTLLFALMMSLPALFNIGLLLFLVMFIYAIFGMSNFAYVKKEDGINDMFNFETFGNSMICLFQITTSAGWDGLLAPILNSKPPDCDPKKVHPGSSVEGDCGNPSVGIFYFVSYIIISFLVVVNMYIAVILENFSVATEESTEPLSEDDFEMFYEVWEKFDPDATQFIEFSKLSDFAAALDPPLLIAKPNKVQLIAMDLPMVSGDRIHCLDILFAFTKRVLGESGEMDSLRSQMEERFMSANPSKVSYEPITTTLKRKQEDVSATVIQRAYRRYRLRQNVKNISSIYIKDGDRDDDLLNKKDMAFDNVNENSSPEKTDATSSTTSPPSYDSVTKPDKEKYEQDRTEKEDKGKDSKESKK
test_name: Blocking effect against sodium ion channel Nav1.7, IonFlux16 auto patch clamp in hNav1.7 HEK293 cells
Type: cell-based
Keep in mind that pIC50 stands for -log10 of concentration in molar terms.

Example results:
CS(=O)(=O)NC(=O)c1cc(Cl)c(-n2nc(-c3cc(F)c(F)c(F)c3)c3cc(Cl)ccc32)cc1F [Example 77] :: 7.70
CS(=O)(=O)NC(=O)c1cc(Cl)c(-n2nc(-c3cccc(Cl)c3F)c3cc(Cl)ccc32)cc1F [Example 79] :: 7.15
Cc1cccc(-c2nn(-c3cc(F)c(C(=O)NS(C)(=O)=O)cc3Cl)c3ccc(Cl)cc23)c1 [Example 52] :: 7.41

// field: pIC50; key: CS(=O)(=O)NC(=O)c1cc(Cl)c(-n2nc(-c3cc(F)ccc3F)c3cc(Cl)ccc32)cc1F [Example 76] ; value = 7.05

// field: pIC50; key: CS(=O)(=O)NC(=O)c1cc(Cl)c(-n2cc(-c3ccc(C(F)(F)F)cc3)c3cc(Cl)cnc32)cc1F [Example 188] ; value = 7.30

// field: pIC50; key: CS(=O)(=O)NC(=O)c1cc(Cl)c(-n2cc(-c3cccc(Cl)c3F)c3cc(F)cnc32)cc1F [Example 211] ; value = 7.40

* * *

assay_target: UniProtKB Q15858
test_name: Blocking effect against sodium ion channel Nav1.7, IonFlux16 auto patch clamp in hNav1.7 HEK293 cells
Assay type: cell-based
test_settings: hNav1.7 HEK293 cells; inhibition of peak current after 50 seconds treatment; eight concentrations; read-out: IC50
measured_metric: IC50 (nM)
Give a bare numeral; the unit nM is implied.

CS(=O)(=O)NC(=O)c1cc(Cl)c(-n2nc(/C=C/c3ccccc3Cl)c3cc(Cl)ccc32)cc1F :: 1010
CS(=O)(=O)NC(=O)c1cc(Cl)c(-n2nc(/C=C/c3ccccc3F)c3cc(Cl)ccc32)cc1F :: 370

// field: IC50; key: CS(=O)(=O)NC(=O)c1cc(Cl)c(-n2nc(-c3cc(Cl)ccc3F)c3cc(Cl)ccc32)cc1F ; value = 37

// field: IC50; key: Cc1ccc(-c2nn(-c3cc(F)c(C(=O)NS(C)(=O)=O)cc3Cl)c3ccc(F)cc23)cc1 ; value = 100

// field: IC50; key: CS(=O)(=O)NC(=O)c1cc(Cl)c(-n2nc(-c3cccc(F)c3)c3ccccc32)cc1F ; value = 190

// field: IC50; key: CS(=O)(=O)NC(=O)c1cc(F)c(-n2nc(-c3ccc(F)cc3)c3cc(Cl)ccc32)cc1Cl ; value = 789

// field: IC50; key: CS(=O)(=O)NC(=O)c1cc(Cl)c(-n2nc(-c3ccc(Cl)c(F)c3)c3cc(F)ccc32)cc1F ; value = 220

// field: IC50; key: CS(=O)(=O)NC(=O)c1cc(Cl)c(-n2nc(Cl)c3cc(Cl)cnc32)cc1F ; value = 1130

// field: IC50; key: CS(=O)(=O)NC(=O)c1cc(Cl)c(-n2nc(-c3c(F)cccc3Cl)c3cc(F)ccc32)cc1F ; value = 640

// field: IC50; key: CS(=O)(=O)NC(=O)c1ccc(-n2nc(-c3ccc(F)cc3F)c3cc(Cl)ccc32)c(C#N)c1 ; value = 957

// field: IC50; key: CS(=O)(=O)NC(=O)c1cc(Cl)c(-n2nc(-c3cccc(F)c3)c3cc(F)ccc32)cc1F ; value = 90

// field: IC50; key: CS(=O)(=O)NC(=O)c1cc(Cl)c(-n2nc(-c3ccccc3F)c3cc(F)ccc32)cc1F ; value = 120

// field: IC50; key: CS(=O)(=O)NC(=O)c1cc(Cl)c(-n2cc(Cl)c3cc(OCc4ccccc4)ccc32)cc1F ; value = 142

// field: IC50; key: CS(=O)(=O)NC(=O)c1cc(Cl)c(-n2nc(-c3cccc(C(F)(F)F)c3)c3ccccc32)cc1F ; value = 140
